Hey, just so you know, these numbers are from patent US11358965B2.

- EXPERIMENT: Microsomal half-life
- Assay type: in vitro ADME
- CONDITION INFO: microsomes
MEASURED PARAMETER: half-life

Q: Fill blank: measured half-life of the compound CN1CCC2(CC1)N=C(SCC(=O)Nc1cnc3ccccc3c1)C(c1ccc(Br)cc1)=N2 [Compound 8C] is ____.
Ans: > 46 min

###

- System: UM1 cells
- EXPERIMENT: Clonogenic IC50, UM1
- Assay type: cell-based
Counter-ions that a name gives are not always drawn.
Decide using IC50 alone. Strictly below 1 µM: criterion met. Equal to or above 1 µM: criterion not met.

Recorded results for 3 compounds are shown here.
compound=COc1ccc(C2=NC3(CCN(C(=O)OC(C)(C)C)CC3)N(CC(=O)Nc3ccc(OC)c(Cl)c3)C2=O)cc1 class_label="criterion not met"
compound=CN1CCC2(CC1)N=C(SCC(=O)Nc1cnc3ccccc3c1)C(c1ccc(Br)cc1)=N2 class_label="criterion met"
compound="COc1ccc(C2=NC3(CCNCC3)N=C2SCC(=O)Nc2ccc(OC)nc2)cc1 [Compound 11, hydrochloride]" class_label="criterion not met"

Q: Input COc1ccc(C2=NC3(CCN(C(=O)OC(C)(C)C)CC3)N=C2SCC(=O)Nc2ccc(OC)nc2)cc1 ; condition: IC50 strictly below 1 µM. Does it hold?
Ans: criterion not met

Q: Could you do the same for CN1CCC2(CC1)N=C(SCC(=O)NC1CCCCC1)C(c1ccc(Br)cc1)=N2 , please?
Ans: criterion not met

Q: // next record COc1ccc(C2=NC3(CCN(C)CC3)N=C2SCC(=O)Nc2ccc(OC)nc2)cc1
Ans: criterion not met

Q: // same read-out, input: CN1CCC2(CC1)N=C(SCC(=O)Nc1ccc(Cl)nc1)C(c1ccc(Br)cc1)=N2
Ans: criterion met

Q: And what about the compound COc1ccc(C2=NC3(CCN(C)CC3)N(CC(=O)Nc3ccc(OC)c(Cl)c3)C2=O)cc1 ?
Ans: criterion met

Q: Also need CN1CCC2(CC1)N=C(SCC(=O)NCc1ccccc1)C(c1ccc(Br)cc1)=N2 , thanks.
Ans: criterion not met

Q: Would you kindly repeat that for CN1CCC2(CC1)N=C(SCC(=O)Nc1ccncc1)C(c1ccc(Br)cc1)=N2 ?
Ans: criterion met
